Data origin: the supplement of paper PMC8728848

Target: Neu5Ac(a2-3)Gal(b1-4)[Fuc(a1-3)]GlcNAc(b1-3)GalNAc
Test description: glycan array binding signal (z-score within array); higher = stronger binding
Settings: glycan notation: IUPAC condensed, linker removed
About 410 targets per protein were measured; listed, in parts, are those with the strongest signals and a random draw of the rest.
Recorded metric: glycan array binding signal (z-score)
Respond with the number and no other words.

>>> value_reported("Eosinophil-derived neurotoxin (EDN) (Homo sapiens), P10153 (protein) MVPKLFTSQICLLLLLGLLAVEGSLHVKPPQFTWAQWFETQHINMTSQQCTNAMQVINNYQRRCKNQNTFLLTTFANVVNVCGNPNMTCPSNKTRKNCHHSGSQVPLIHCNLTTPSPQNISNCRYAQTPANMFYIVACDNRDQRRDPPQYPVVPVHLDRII")
0.955

INPUT: Which glycan array binding signal (z-score) is reported for this binder? GNAT (Pseudomonas aeruginosa), Q9HV14 (protein) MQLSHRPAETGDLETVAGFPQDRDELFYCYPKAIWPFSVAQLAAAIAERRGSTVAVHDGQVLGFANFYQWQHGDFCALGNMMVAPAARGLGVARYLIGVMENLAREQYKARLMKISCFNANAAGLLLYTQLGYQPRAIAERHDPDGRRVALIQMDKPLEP
OUTPUT: 2.77

INPUT: Which glycan array binding signal (z-score) is reported for this binder? EfCBM33A (Enterococcus faecalis), Q838S1 (protein) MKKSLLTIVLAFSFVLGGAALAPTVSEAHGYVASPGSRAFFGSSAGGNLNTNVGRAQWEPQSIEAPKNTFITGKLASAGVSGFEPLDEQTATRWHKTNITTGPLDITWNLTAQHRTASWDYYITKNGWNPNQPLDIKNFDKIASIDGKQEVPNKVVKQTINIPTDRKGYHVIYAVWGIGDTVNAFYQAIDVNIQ
OUTPUT: 2.79
